Assay info: Oral bioavailability in C57BL6 mouse at 30 mg/kg
Assay type: ADME, organism-based
Particulars: in vivo
Measured endpoint: bioavailability (%)
Number in %, nothing else.

{"Molecule": "COc1ccc2nc(C(F)(F)F)n(CC(=O)N3CC[C@H](NC4CCOC4)C[C@H]3c3ncc(-c4cc5ccccc5nc4OC)[nH]3)c2c1 (some centres not stated)", "bioavailability [%]": 103}

Note: attention shifts to another entry.
Exercise: Field request: bioavailability | item: COc1nc2ccccc2cc1-c1cnc([C@@H]2CN(CC3CCOC3)CCN2C(=O)n2c(C(F)(F)F)nc3ccccc32)[nH]1 (some centres not stated)
Key: 133

// data source = ChEMBL document CHEMBL4627383
